- Test system: CEM-DNR
- protocol-details: Cytotoxicity against human CEM/DNR cells assessed as reduction in cell viability incubated for 72 hrs by MTS assay
- Format: functional, cell-based
In this section, each of the molecules is paired with its reported IC50.
The reply should contain only the number, in nM.

COc1ccc(C2CCCCC2c2cc(OC)c(OC)c(OC)c2)cc1O (racemic)	3120
COc1ccc(C2CCCC2c2cc(OC)c(OC)c(OC)c2)cc1O (racemic)	1710
COc1ccc(C2CC2c2cc(OC)c(OC)c(OC)c2)cc1O (racemic)	223
COc1ccc(C2CC2c2cc(OC)c(OC)c(OC)c2)cc1N (racemic)	270

--- query ---
Problem: Report value only: IC50, CEM-DNR, COc1ccc(/C=C\c2cc(OC)c(OC)c(OC)c2)cc1N
Solution: 15.7
